Molecular target: Human M4 (Homo sapiens)
Construct: expressed in transfected cells; host or cells: CHO-K1 (ATCC), stably expressing hM4 and Gqi5
Sequence (P08173 whole entry): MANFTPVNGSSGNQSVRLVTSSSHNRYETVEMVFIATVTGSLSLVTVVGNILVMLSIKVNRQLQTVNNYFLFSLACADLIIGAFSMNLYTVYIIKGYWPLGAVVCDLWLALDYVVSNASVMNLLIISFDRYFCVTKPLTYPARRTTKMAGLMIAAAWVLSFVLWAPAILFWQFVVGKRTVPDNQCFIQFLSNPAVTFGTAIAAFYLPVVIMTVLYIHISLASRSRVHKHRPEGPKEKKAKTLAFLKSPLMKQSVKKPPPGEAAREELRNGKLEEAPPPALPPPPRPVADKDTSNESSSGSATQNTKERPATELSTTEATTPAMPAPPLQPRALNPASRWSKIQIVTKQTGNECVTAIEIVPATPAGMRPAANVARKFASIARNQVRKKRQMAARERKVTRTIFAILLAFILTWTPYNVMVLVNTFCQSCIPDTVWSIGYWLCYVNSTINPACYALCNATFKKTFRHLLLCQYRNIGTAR
Experiment: mAChR M4 cell-based functional assay (calcium flux, potentiation of EC20 acetylcholine response in CHO-K1 hM4-Gqi5 cells)
Conditions: CHO-K1; % ACh maximum at 30 μM; human M4
Metric Name: Emax at 30 µM (%)

Worked examples follow.
* Cc1nnc2ccc(C(=O)NC3CN(c4ccc(C#N)cn4)C3)cc2c1C [Compound 25] | 80.6
* Cc1nnc2ccc(C(=O)NC3CN(c4ncccc4Cl)C3)cc2c1C [Compound 35] | 83.7
* Cc1cc(C)c2cc(C(=O)NC3CN(c4ccnc(F)c4F)C3)ccc2n1 [Compound 12] | 65.4
* COc1cc(N2CC(NC(=O)c3ccc4nc(C)cc(C)c4c3)C2)c(Cl)cn1 [Compound 2] | 39.3

a = Cc1cc(C)c2cc(C(=O)NC3CN(c4nccc(Br)c4F)C3)ccc2n1 [Compound 13]
b = Cc1nnc2ccc(C(=O)NC3CN(c4ccnc(C(F)(F)F)c4)C3)cc2c1C [Compound 37]
### Prompt Min Emax at 30 µM? a | b Please respond with the label that marks your chosen entry.
### Response a

P = Cc1cc(C)c2cc(C(=O)NCc3cccnc3)ccc2n1 [Compound 7]
Q = Cc1nnc2ccc(C(=O)NC3CN(c4ccc(F)c(F)c4)C3)cc2c1C [Compound 18]
### Prompt Min Emax at 30 µM? P | Q Please respond with the label that marks your chosen entry.
### Response P
(P: 32%, Q: 81.7%)

I = Cc1cc(N2CC(NC(=O)c3ccc4nc(C)cc(C)c4c3)C2)cc(OC(F)F)n1 [Compound 8]
II = Cc1nnc2ccc(C(=O)NC3CN(c4ncc(F)cc4Cl)C3)cc2c1C [Compound 26]
### Prompt Between the entries labelled I and II , which has a larger Emax at 30 µM value on record? Please respond with the label that marks your chosen entry.
### Response II
